# SYSTEM TESTED: Polyunsaturated fatty acid 5-lipoxygenase (Homo sapiens) (UniProt P09917)
# Sequence (P09917 whole entry): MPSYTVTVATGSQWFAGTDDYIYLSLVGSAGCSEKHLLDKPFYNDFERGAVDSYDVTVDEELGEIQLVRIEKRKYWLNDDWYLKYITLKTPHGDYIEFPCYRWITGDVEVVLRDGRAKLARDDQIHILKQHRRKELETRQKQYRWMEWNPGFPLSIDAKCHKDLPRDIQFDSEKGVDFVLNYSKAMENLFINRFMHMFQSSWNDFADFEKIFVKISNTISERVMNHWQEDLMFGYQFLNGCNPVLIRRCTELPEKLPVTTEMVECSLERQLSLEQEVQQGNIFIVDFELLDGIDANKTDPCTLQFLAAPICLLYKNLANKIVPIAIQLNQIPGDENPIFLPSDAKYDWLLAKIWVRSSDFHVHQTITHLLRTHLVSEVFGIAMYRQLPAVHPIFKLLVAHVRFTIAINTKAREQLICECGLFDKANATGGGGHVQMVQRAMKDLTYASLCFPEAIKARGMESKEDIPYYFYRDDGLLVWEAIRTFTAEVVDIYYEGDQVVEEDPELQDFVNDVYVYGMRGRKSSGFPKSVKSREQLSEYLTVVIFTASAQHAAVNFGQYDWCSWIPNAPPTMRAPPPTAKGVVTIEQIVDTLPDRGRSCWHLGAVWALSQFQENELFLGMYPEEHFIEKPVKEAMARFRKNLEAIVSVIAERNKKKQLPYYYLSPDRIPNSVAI
# ASSAY NOTES: Inhibition of recombinant human 5-LOX expressed in Escherichia coli BL21 at 10 uM using arachidonic acid as substrate by UV-vis spectrophotometric method relative to control
PROPERTY: inhibition (%)

In the examples that follow, each entry is paired with its recorded inhibition.
* COc1ccc(C(=O)NC(=S)N(C)Cc2ccccc2)cc1 | 26.5
* COc1ccc(-c2nc(N(C)Cc3ccccc3)sc2C(=O)c2ccccc2)cc1 | 17.7

1 = COc1ccc(C(=O)NC(=S)N(c2ccccc2)c2ccccc2)cc1
2 = O=C(c1ccccc1)c1sc(N2CCOCC2)nc1-c1ccccc1
3 = COc1ccc(-c2nc(N3CCN(c4ccccc4)CC3)sc2C(=O)c2ccccc2)cc1
Please order the records by their reported inhibition, lowest number first. Kindly provide the labels arranged according to the requested ordering.
1, 3, 2
(1: 19.2%, 3: 53.1%, 2: 85.3%)

---

# SYSTEM TESTED: Polyunsaturated fatty acid 5-lipoxygenase (Homo sapiens)
# ASSAY NOTES: Inhibition of recombinant human 5-LOX expressed in Escherichia coli BL21 at 10 uM using arachidonic acid as substrate by UV-vis spectrophotometric method relative to control
PROPERTY: inhibition (%)

- O=C(NC(=S)N(c1ccccc1)c1ccccc1)c1ccc([N+](=O)[O-])cc1: 30.9
- COc1ccc(C(=O)NC(=S)N2CCOCC2)cc1: 68.3
- O=C(NC(=S)N1CCN(c2ccccc2)CC1)c1ccc([N+](=O)[O-])cc1: 76.6
- CN(c1ccccc1)c1nc(-c2ccccc2)c(C(=O)c2ccccc2)s1: 67.8

A = O=C(c1ccccc1)c1sc(N(c2ccccc2)c2ccccc2)nc1-c1ccc([N+](=O)[O-])cc1
B = O=C(NC(=S)N1CCOCC1)c1ccc(F)cc1
When their inhibition values are compared, which is larger, A or B ? Provide the label of your selected option as the answer.
A
(A: 79.6%, B: 29.5%)
